Reported IC50 values are given for each entry in this list.
- assayed.system: recombinant human baculovirus-expressed GST-tagged FASN (Homo sapiens, UniProt P49327)
- Construct: GST
- Sequence (P49327 whole entry): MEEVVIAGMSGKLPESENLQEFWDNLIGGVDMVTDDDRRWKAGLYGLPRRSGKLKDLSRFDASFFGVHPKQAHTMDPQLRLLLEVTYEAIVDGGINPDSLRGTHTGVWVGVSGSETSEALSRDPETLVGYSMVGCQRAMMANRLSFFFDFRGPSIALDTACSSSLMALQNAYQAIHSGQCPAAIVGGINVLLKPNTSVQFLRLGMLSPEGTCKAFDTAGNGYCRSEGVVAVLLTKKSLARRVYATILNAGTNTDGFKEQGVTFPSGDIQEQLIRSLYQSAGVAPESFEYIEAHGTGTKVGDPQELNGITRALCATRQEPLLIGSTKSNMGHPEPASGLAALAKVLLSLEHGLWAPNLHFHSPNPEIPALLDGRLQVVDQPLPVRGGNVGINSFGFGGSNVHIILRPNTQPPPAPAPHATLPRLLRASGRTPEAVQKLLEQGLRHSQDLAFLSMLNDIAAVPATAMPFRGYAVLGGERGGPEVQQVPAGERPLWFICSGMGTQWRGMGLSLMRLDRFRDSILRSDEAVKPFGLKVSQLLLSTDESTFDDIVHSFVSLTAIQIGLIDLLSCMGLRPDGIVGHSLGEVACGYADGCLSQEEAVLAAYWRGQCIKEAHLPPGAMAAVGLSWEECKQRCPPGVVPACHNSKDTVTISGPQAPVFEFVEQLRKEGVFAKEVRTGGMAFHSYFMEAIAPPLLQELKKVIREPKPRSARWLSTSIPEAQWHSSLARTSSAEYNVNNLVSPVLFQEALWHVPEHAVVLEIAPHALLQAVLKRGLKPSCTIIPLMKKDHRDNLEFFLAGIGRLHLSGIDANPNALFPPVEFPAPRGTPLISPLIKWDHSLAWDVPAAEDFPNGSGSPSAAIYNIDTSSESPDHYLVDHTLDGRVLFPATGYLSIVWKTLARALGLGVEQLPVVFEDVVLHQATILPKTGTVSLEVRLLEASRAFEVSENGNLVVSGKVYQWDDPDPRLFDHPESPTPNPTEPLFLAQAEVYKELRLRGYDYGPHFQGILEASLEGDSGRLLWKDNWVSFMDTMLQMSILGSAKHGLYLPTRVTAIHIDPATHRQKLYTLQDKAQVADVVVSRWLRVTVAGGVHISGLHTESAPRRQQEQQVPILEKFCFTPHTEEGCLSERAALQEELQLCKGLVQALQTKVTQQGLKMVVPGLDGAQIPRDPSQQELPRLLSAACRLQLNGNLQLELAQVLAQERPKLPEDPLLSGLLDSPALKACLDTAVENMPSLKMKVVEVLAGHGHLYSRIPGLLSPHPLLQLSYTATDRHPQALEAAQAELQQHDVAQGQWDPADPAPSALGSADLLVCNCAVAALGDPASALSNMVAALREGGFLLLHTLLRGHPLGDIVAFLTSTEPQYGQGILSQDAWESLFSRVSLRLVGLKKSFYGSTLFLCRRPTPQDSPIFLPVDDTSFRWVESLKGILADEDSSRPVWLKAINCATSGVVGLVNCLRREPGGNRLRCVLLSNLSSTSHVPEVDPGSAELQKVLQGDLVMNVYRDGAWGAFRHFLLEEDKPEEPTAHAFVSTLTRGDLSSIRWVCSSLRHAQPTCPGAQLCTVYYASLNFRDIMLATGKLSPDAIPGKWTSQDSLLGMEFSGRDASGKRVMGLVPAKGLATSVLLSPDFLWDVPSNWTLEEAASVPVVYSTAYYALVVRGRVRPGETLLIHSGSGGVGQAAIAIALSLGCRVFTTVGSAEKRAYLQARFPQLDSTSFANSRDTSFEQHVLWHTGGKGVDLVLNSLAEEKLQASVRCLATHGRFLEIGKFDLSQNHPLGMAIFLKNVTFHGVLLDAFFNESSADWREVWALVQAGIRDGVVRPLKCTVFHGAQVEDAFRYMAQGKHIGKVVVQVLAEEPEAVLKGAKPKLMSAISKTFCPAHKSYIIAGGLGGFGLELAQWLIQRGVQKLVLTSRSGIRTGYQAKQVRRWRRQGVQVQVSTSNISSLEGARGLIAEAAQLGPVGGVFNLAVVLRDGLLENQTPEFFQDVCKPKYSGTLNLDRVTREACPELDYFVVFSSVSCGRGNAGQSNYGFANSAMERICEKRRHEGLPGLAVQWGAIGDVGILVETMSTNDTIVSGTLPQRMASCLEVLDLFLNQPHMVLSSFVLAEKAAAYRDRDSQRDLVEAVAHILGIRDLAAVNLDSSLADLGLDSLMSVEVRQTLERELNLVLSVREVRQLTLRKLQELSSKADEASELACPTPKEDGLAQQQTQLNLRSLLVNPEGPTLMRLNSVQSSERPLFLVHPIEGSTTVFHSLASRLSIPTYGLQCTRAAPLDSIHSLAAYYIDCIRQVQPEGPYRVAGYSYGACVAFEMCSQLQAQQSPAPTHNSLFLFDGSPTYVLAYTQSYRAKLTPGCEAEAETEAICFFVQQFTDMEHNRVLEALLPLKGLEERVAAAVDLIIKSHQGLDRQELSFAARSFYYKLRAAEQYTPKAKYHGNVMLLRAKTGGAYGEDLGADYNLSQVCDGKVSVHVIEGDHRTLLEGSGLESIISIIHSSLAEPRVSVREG
- assay.protocol: FASN enzyme activity assay, fluorescence-based detection of CoA with CPM
- Type: biochemical
- condition.notes: 5 nM FASN, 150 μM NADPH, 10 μM acetyl-CoA, 25 μM malonyl-CoA, 90 minutes incubation; read-out: IC50 data for Compounds of Formulae I-V/V(a): Activity
Structures can show the parent of a compound that is named as a salt.

molecule	IC50
CCC(=O)N1CCC(Oc2ccc(-c3cnc4ccccc4c3)c(C)c2)CC1 [Example 207]	0.1 to 0.999 µM
O=C(C1CCC1)N1CCC(Oc2ccc(-c3ccc4ccccc4n3)cc2)CC1 [Example 41]	0.1 to 0.999 µM
CC1(C(=O)N2CCC(Oc3ccc(-c4cnc5ccccc5c4)cc3)CC2)OCCO1 [Example 116, HCl]	0.001 to 0.099 µM
O=C(C1CCCS1(=O)=O)N1CCC(Oc2ccc(-c3cnc4ccccc4c3)cc2)CC1 (stereo not drawn) [Example 118, HCl]	1 to 10 µM
CC(C)C(=O)N1CCC(Sc2ccc(-c3cnc4ccccc4c3)cc2)CC1 [Example 522, HCl]	1 to 10 µM
O=C(C1CC1)N1CCC(Oc2ccc(-c3cccc(-c4ccccn4)c3F)cc2)CC1 [Example 396]	1 to 10 µM
CN1CCN(c2c(-c3ccc(OC4CCN(C(=O)[C@H]5CCCO5)CC4)cc3)cnc3ccccc23)CC1 [Example 240]	1 to 10 µM
Cc1ccc2ncc(-c3ccc(OC4CCN(C(=O)[C@H]5CCCO5)CC4)cc3)cc2c1 [Example 485, HCl]	0.001 to 0.099 µM
CCC(=O)N1CCC(Oc2ccc(-c3ccc4cnc(Cl)cc4c3)cc2)CC1 [Example 413]	1 to 10 µM
O=C(C1CC1)N1CCC(Oc2ccc(-c3cnc4ccccc4c3)c(Cl)c2)CC1 [Example 205]	0.001 to 0.099 µM
CCC(=O)N1CCC(Oc2ccc(-c3cccc(-c4ccccn4)c3F)cc2)CC1 [Example 395]	1 to 10 µM
Cc1nccc2cc(-c3ccc(OC4CCN(C(=O)C5CC(F)(F)CO5)CC4)cc3)ccc12 (stereo not drawn) [Example 165, HCl]	0.1 to 0.999 µM
CCCNC(=O)N1CCC(Oc2ccc(-c3ccc4cccnc4c3C)cc2)CC1 [Example 96]	0.001 to 0.099 µM
CCC(=O)N1CC[C@@H](Oc2ccc(-c3ccc4cccnc4c3C)cc2)[C@H](F)C1 (relative stereo) [Example 373, HCl]	0.1 to 0.999 µM
CCC(=O)N1CCC(Oc2ccc(-c3cnc4cc(OC)ccc4c3)cc2)CC1 [Example 35]	0.001 to 0.099 µM
O=C(c1ccsn1)N1CCC(Oc2ccc(-c3cnc4ccccc4c3)cc2)CC1 [Example 125, HCl]	1 to 10 µM
CC(C)C(=O)N1CCC(S(=O)(=O)c2ccc(-c3ccc4cccnc4c3)cc2)CC1 [Example 512]	1 to 10 µM
Cc1c(-c2ccc(OC3CCN(C(=O)[C@H]4CC4(C)C)CC3)cc2)ccc2cccnc12 [Example 321]	0.1 to 0.999 µM
CN(C)c1c(-c2ccc(OC3CCN(C(=O)C4CC4)CC3)cc2)ccc2cccnc12 [Example 333]	1 to 10 µM
CCC(=O)N1CCC(Oc2ccc(-c3cc(C)c4nccn4c3)cc2)CC1 [Example 284]	1 to 10 µM
Cc1c(-c2ccc(OC3CCN(C(=O)C4CC4)CC3)cc2)ccc2ncnn12 [Example 314]	1 to 10 µM
CCC(=O)N1CCC(Oc2ccc(-c3c[nH]c4ccccc34)cc2)CC1 [Example 246]	1 to 10 µM
O=C(C1CC1)N1CCC(Oc2ccc(-c3cc4ccccc4cn3)cc2)CC1 [Example 44]	0.001 to 0.099 µM
COc1cc(OC2CCN(C(=O)C3CC3)CC2)ccc1-c1cnc2ccccc2c1 [Example 211]	1 to 10 µM
O=C([C@H]1CCCO1)N1CCC(Oc2ccc(-c3ccc4cccnc4c3OCCN3CCOCC3)cc2)CC1 [Example 182]	0.1 to 0.999 µM
CC(C)C(=O)N1CCC(Oc2ccc(-c3cncc(-c4ccccc4)c3)cc2)CC1 [Example 383]	1 to 10 µM
COCCOc1c(-c2ccc(OC3CCN(C(=O)[C@H]4CCCO4)CC3)cc2)ccc2cccnc12 [Example 186, HCl]	0.001 to 0.099 µM
CCC(=O)N1CCC(Sc2ccc(-c3ccc4cnccc4c3)cc2)CC1 [Example 517, HCl]	0.001 to 0.099 µM
CCC(=O)N1CCC(Oc2ccc(-c3ccc4c(OC)nccc4c3)cc2)CC1 [Example 433]	0.1 to 0.999 µM
COc1cc2ncc(-c3ccc(OC4CCN(C(=O)C5CC5)CC4)cc3)cc2cc1C [Example 442]	1 to 10 µM
CCC(=O)N1CCC(Oc2ccc(-c3ccc4cc(Cl)cnc4c3)cc2)CC1 [Example 266, TFA salt]	0.1 to 0.999 µM
Cc1c(-c2ccc(OC3CCN(C(N)=O)CC3)cc2)ccc2cccnc12 [Example 97]	0.1 to 0.999 µM
O=C([C@H]1CCCO1)N1CCC(Oc2ccc(-c3ccc4c(Cl)ccnc4c3)cc2)CC1 [Example 257, TFA salt]	0.001 to 0.099 µM
